Can you tell me protein stability index for the items I'm about to list?
B1: GLT8D2 (parent)
chain: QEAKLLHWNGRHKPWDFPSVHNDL

# Variants of: B1
# METHOD SUMMARY: protein stability index of a GFP-peptide fusion (GPS, HEK-293T) (PSI 1-6); higher = more stable;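 note: lentivirally expressed fusions sorted by FACS into six bins by GFP to DsRed ratio, PSI derived from sequencing read proportions per bin multiplied by bin number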
# EXPERIMENTAL CONDITIONS: c terminus: a fixed tail appended
// return a plain number; no unit text

Fill in: protein stability index of `P18T` is ___ 2.32

Try the variant `G10R` 2.79

What do you get for `R11D` ? 3.33

Can you handle `P14R` next? 2.56

Lookup `N22Y` 1.91

Thanks! And `L24A` ? 3.33

Repeat for the following variant: `N9W` 1.75

Repeat for the following variant: `N9R` 2.46

And the next one, `K13R` ? 2.86

Try this variant next: `V20K` 2.56

Cool, now `W8S` 3.47

Another variant to look at: `E2Y` 2.04

Here is the next variant: `H21M` 3.05

Then this variant: `F17M` 3.22

What would you report for `V20N` ? 3.23

Next: `W15Y` 2.62

And the next one, `H7N` ? 2.54
